Experiment: hydrolysis in aqueous acidic medium (simulated gastro-intestinal juices), HPLC
Assay type: physicochemical
Conditions: 180 min; THF: aqueous conc. HCl 1:1, 37° C.; read-out: Ester (%)
measurement_name: remaining at 3 h

# get_value(readout='remaining at 3 h', item= CCOC(=O)OC(C)OC(=O)c1ccccc1OC(C)=O (stereo not shown) )
82%

---

Test system: stomach ulcers in rats
Assay: Ulcerogenicity
Assay type: in vivo, rat
Conditions: rat, in vivo
Experimental: Methods: Six groups of 10 female Charles River rats weighing 170-230 g were used for each drug. […] Drugs were freshly suspended in water with 1% carboxymethyl cellulose and administered by stomach tube. […] Ulcers were evaluated under a magnifying lens, after the stomach had been dissected out, opened along the lesser curvature and rinsed. Ulcer index (UI) for each group was calculated as the mean sum of the lengths of the individual lesions in each rat. […]
measurement_name: UD max (mmol/kg)
The response must be a number in mmol/kg with no trailing unit.

{"molecule": "CC(C)Cc1ccc(C(C)C(=O)O)cc1 (stereo not shown) [Ibuprofen, reference compound]", "u": "mmol/kg", "UD max": 2.8}
{"molecule": "CC(=O)Oc1ccccc1C(=O)O [Aspirin, 2-(acetyloxy)benzoic acid, reference compound]", "u": "mmol/kg", "UD max": 0.4}

# get_value(readout='UD max', item= COc1ccc2c(c1)c(CC(=O)O)c(C)n2C(=O)c1ccc(Cl)cc1 [Indomethacin, reference compound] )
0.32

# get_value(readout='UD max', item= O=C(O)Cc1ccccc1Nc1c(Cl)cccc1Cl [Diclofenac, reference compound] )
0.6

---

Here the recorded Slope is given for each entry.
Tested on: stomach ulcers in rats
Assay: Ulcerogenicity
Assay type: in vivo, rat
Settings: rat, in vivo, po
The response must be a number in Uxkg/mmole with no trailing unit.

Consider the worked cases shown below.
{"compound": "O=C(O)Cc1ccccc1Nc1c(Cl)cccc1Cl [Diclofenac, reference compound]", "Slope / Uxkg/mmole": 31.1}
{"compound": "CC(=O)Oc1ccccc1C(=O)O [Aspirin, 2-(acetyloxy)benzoic acid, reference compound]", "Slope / Uxkg/mmole": 33.7}
{"compound": "CC(C)Cc1ccc(C(C)C(=O)O)cc1 (stereo not shown) [Ibuprofen, reference compound]", "Slope / Uxkg/mmole": 38.1}

# get_value(readout='Slope', item= COc1ccc2c(c1)c(CC(=O)O)c(C)n2C(=O)c1ccc(Cl)cc1 [Indomethacin, reference compound] )
50

---

Here the recorded UI50 is given for each entry.
Test system: stomach ulcers in rats
Test: Ulcerogenicity
Format: in vivo, rat
Settings: 50% of ulcerogenic index max; + on value: dose response curve acquired bell shape
Answer field: number only, no words.

Consider the worked cases shown below.
{"compound": "COc1ccc2cc([C@H](C)C(=O)O)ccc2c1 [Naproxen, reference compound]", "UI50": 31.0}
{"compound": "CCOC(=O)OC(C)OC(=O)C(C)c1ccc2cc(OC)ccc2c1 (single isomer, unassigned; (+))", "UI50": 32.5}
{"compound": "CCOC(=O)OC(C)OC(=O)c1ccccc1OC(C)=O (stereo not shown)", "UI50": 20.5}

# get_value(readout='UI50', item= CCOC(=O)OC(C)OC(=O)C(C)c1ccc(CC(C)C)cc1 (stereo not shown) )
13.0

---

Test: Ulcerogenicity
Format: in vivo, rat
Details: rat, in vivo; dose causing UI50; female rats, oral, 5 hours; read-out: UD50
measurement_name: TD50 at 5 h
Write down the value, and be sure its unit follows.

{"compound": "CCOC(=O)OC(C)OC(=O)C(C)c1ccc2cc(OC)ccc2c1 (single isomer, unassigned; (+))", "TD50 at 5 h": "590 µmol/kg"}
{"compound": "CC(C)Cc1ccc(C(C)C(=O)O)cc1 (centres unmarked) [Ibuprofen, reference compound]", "TD50 at 5 h": "325 µmol/kg"}
{"compound": "CC(=O)Oc1ccccc1C(=O)O [Aspirin, 2-(acetyloxy)benzoic acid, reference compound]", "TD50 at 5 h": "20 µmol/kg"}

# get_value(readout='TD50 at 5 h', item= CCOC(=O)OC(C)OC(=O)c1ccccc1OC(C)=O (centres unmarked) )
20 µmol/kg

# get_value(readout='TD50 at 5 h', item= CCOC(=O)OC(C)OC(=O)C(C)c1ccc(CC(C)C)cc1 (centres unmarked) )
300 µmol/kg

Hello, the source for this data is patent US4851426A, in case you need it.
